Assay: gradient 5% acetonitrile 3 min, to 50% in 2 min, to 85% in 15 min, held 3 min, 100 µL/min
Conditions: column: Zorbax Extend-C18 2.1 x 50 mm; eluents: water / acetonitrile, 0.1% formic acid
OBSERVATION_TYPE: RP-LC retention time (s)

# COMPOUND, READOUT_NUMBER
rows = [
    ("COC(=O)c1c(C)[nH]c(C(=O)N2CCC(CC(=O)NCc3cccc(Br)c3)CC2)c1C", 800),
    ("COc1cccc(N2CCN(c3nnc(-c4nnc(C)o4)c4ccccc34)CC2)c1", 922),
    ("CCn1c(=O)c(C(=O)NCCN(C)C2CCCCC2)nc2cccnc21", 722),
    ("CCOc1ccc(OCC)c(NC(=O)Cc2csc3nc(-c4ccc(OC)c(OC)c4)cn23)c1", 870),
    ("O=C(CSc1cn(CC(=O)N2CCCCCC2)c2ccccc12)NCC1CCCO1 (configuration not stated)", 799),
    ("CC1(C)C(=O)N(CC(=O)Nc2ccc(F)cc2F)c2ccccc21", 871),
    ("O=c1n(Cc2c(F)cccc2Cl)nc2ccc(S(=O)(=O)N3CCOCC3)cn12", 821),
    ("O=C(CCc1nc2ccccc2n(CC(=O)NC2CCCCC2)c1=O)NC1CCCCC1", 844),
    ("Cc1ccc(CNC(=O)c2nc(Nc3ccc(F)cc3)c3ccccc3n2)o1", 784),
    ("O=c1c2sccc2n(Cc2nc(-c3ccccc3)no2)c(=O)n1-c1ccccc1", 932),
    ("Cc1ccc2c(NCc3ccc(F)cc3)c(-c3nc(C(C)C)no3)cnc2n1", 798),
    ("CCc1nnc(-c2ccc(NC(=O)c3ccc(S(=O)(=O)N(CC)CC)cc3)cc2)o1", 826),
]
